Cited source for all entries: patent US20260297085A1

# assay system: human JAK2 kinase domain (JH1) (Homo sapiens, UniProt O60674)
# Construct: recombinantly generated catalytic kinase (also known as JH1) domain of human JAK1, JAK2, JAK3 and TYK2
# Sequence (O60674 849-1124 limits assumed): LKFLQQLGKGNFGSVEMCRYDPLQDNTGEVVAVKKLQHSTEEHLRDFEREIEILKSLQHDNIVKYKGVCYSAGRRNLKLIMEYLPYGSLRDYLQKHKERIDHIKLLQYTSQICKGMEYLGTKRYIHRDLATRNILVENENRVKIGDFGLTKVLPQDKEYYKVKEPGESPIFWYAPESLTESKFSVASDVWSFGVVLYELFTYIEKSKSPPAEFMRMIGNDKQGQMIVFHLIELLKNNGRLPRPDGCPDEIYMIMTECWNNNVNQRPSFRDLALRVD
# method description: JH1 biochemical assay for JAK2 (ADP-Glo kinase assay, recombinant JH1 catalytic domain, JAK3-974 peptide, 15 μM ATP)
# measurement parameters: JH1 kinase domain, ADP-Glo
Structures can show the parent of a compound that is named as a salt.
Catalogue of IC50 readings, one per entry.

input: Which value of IC50 has been reported for C[C@@H]1CN(c2nc(-c3cnn(C)c3)cn3ncc(F)c23)C(=O)[C@]1(C#N)C1CC1 [Example 187] in the records?
output: 100 to 1000 nM

Others:
input: Which value of IC50 has been reported for C[C@@H]1CN(c2ccnn3cc(-c4ncccc4F)cc23)C(=O)[C@]1(C#N)C1CC1 [Example 138, trifluoroacetate] in the records?
output: > 10000 nM

input: Which value of IC50 has been reported for CC[C@H]1CN(c2ccnn3cc(-c4cnn(C)c4)cc23)C(=O)[C@]1(C#N)C1CC1 [Example 24] in the records?
output: 5000 to 10000 nM

input: Which value of IC50 has been reported for CC(=O)Nc1cncc(-c2cc3c(N4C[C@@H](C)[C@@](C#N)(C5CC5)C4=O)ccnn3c2)c1 [Example 90] in the records?
output: 100 to 1000 nM

input: Which value of IC50 has been reported for Cn1cc(-c2cc3c(N4CC[C@@H](C5CC5)C4=O)ccnn3c2)cn1 (single isomer, unassigned) [Example 37] in the records?
output: 1000 to 5000 nM

input: Which value of IC50 has been reported for C[C@@H]1CN(c2ccnn3cc(-c4ccc(C#N)nc4)cc23)C(=O)[C@]1(C#N)C1CC1 [Example 86, trifluoroacetate] in the records?
output: 1000 to 5000 nM

input: Which value of IC50 has been reported for C[C@@H]1CN(c2nc(-c3ccc(=O)n(C(F)F)c3)cn3nccc23)C(=O)[C@]1(C#N)C1CC1 [Example 210] in the records?
output: 100 to 1000 nM
